B1: unnamed (parent)
chain 1: ATCYCRTGRCATRESLSGVCEISGRLYRLCCR
chain 2: MKRARPSEDTFNPVYPYDTETGPPTVPFLTPPFVSPNGFQESPPGVLSLRLSEPLVTSNGMLALKMGNGLSLDEAGNLTSQNVTTVSPPLKKTKSNINLEISAPLTVTSEALTVAAAAPLMVAGNTLTMQSQAPLTVHDSKLSIATQGPLTVSEGKLALQTSGPLTTTDSSTLTITASPPLTTATGSLGIDLKEPIYTQNGKLGLKYGAPLHVTDDLNTLTVATGPGVTINNTSLQTKVTGALGFDSQGNMQLNVAGGLRIDSQNRRLILDVSYPFDAQNQLNLRLGQGPLFINSAHNLDINYNKGLYLFTASNNSKKLEVNLSTAKGLMFDATAIAINAGDGLEFGSPNAPNTNPLKTKIGHGLEFDSNKAMVPKLGTGLSFDSTGAITVGNKNNDKLTLWTTPAPSPNCRLNAEKDAKLTLVLTKCGSQILATVSVLAVKGSLAPISGTVQSAHLIIRFDENGVLLNNSFLDPEYWNFRNGDLTEGTAYTNAVGFMPNLSAYPKSHGKTAKSNIVSQVYLNGDKTKPVTLTITLNGTQETGDTTPSAYSMSFSWDWSGHNYINEIFATSSYTFSYIAQE
chain 3: MRRAAMYEEGPPPSYESVVSAAPVAAALGSPFDAPLDPPFVPPRYLRPTGGRNSIRYSELAPLFDTTRVYLVDNKSTDVASLNYQNDHSNFLTTVIQNNDYSPGEASTQTINLDDRSHWGGDLKTILHTNMPNVNEFMFTNKFKARVMVSRLPTKDNQVELKYEWVEFTLPEGNYSETMTIDLMNNAIVEHYLKVGRQNGVLESDIGVKFDTRNFRLGFDPVTGLVMPGVYTNEAFHPDIILLPGCGVDFTHSRLSNLLGIRKRQPFQEGFRITYDDLEGGNIPALLDVDAYQASLKDDTEQGGGGAGGSNSSGSGAEENSNAAAAAMQPVEDMNDHAIRGDTFATRAEEKRAEAEAAAEAAAPAAQPEVEKPQKKPVIKPLTEDSKKRSYNLISNDSTFTQYRSWYLAYNYGDPQTGIRSWTLLCTPDVTCGSEQVYWSLPDMMQDPVTFRSTRQISNFPVVGAELLPVHSKSFYNDQAVYSQLIRQFTSLTHVFNRFPENQILARPPAPTITTVSENVPALTDHGTLPLRNSIGGVQRVTITDARRRTCPYVYKALGIVSPRVLSSRTF

- Variants of: B1
- protocol description: SPR
- cond: with partner chain of the complex shown; steady-state binding curves at 80 sec of association time; 3-fold dilution series from 3 µM to 111 nM; immobilized rPenton (2115 RU); read off a plot

{"residue codes": "chain 1 ATCYCRTGRCATRESLSGVCAISGRLYRLCCR [chain 1 E21A]", "measurement unit": "RU", "screen value": 1600}
{"residue codes": "chain 1 ATCYCRTGRCATRESLSGACEISGRLYRLCCR [chain 1 V19A]", "measurement unit": "RU", "screen value": 1200}
{"residue codes": "chain 1 ATCYCRTGRCATRESLSGVCEASGRLYRLCCR [chain 1 I22A]", "measurement unit": "RU", "screen value": 1600}
{"residue codes": "chain 1 ATCYCRAGRCATRESLSGVCEISGRLYRLCCR [chain 1 T7A]", "measurement unit": "RU", "screen value": 2100}
{"residue codes": "chain 1 ATCYCRTGRCAARESLSGVCEISGRLYRLCCR [chain 1 T12A]", "measurement unit": "RU", "screen value": 2200}
{"residue codes": "chain 1 ATCYCRTGRCATRESLSGVCEISGRLYALCCR [chain 1 R28A]", "measurement unit": "RU", "screen value": 1100}
{"residue codes": "chain 1 ATCYCRTGRCATRESLSGVCEISGRAYRLCCR [chain 1 L26A]", "measurement unit": "RU", "screen value": 700}

The measured values listed here are drawn from paper PMC4154873.
